Values compiled from patent US20250136581A1.

- test target: α5-GABAA receptor (α5, β3, γ2 subunits) (Homo sapiens (Human), UniProt P18507+P31644)
- assay comment: Whole cell patch clamp, inverse agonist efficacy in HEK293 cells expressing α5-GABAA receptor
- Format: cell-based
- test settings: HEK293, drug 100 nM, GABA 0.05 μM, −60 mV; read-out: Compound inverse agonist efficacy %
reported metric: inhibition at 0.1 µM

// query Provide value of inhibition at 0.1 µM for this record tested with α5-GABAA receptor (α5, β3, γ2 subunits) (Homo sapiens (Human), UniProt P18507+P31644): Cc1nnn(-c2ccc(C(F)F)cc2)c1COc1cnc(N2CCN3CCNC(=O)[C@@H]3C2)cn1
// result 49.7%

// query Reported inhibition at 0.1 µM for α5-GABAA receptor (α5, β3, γ2 subunits) (Homo sapiens (Human), UniProt P18507+P31644), given Cc1nnn(-c2ccc(C(F)F)cc2)c1COc1ccc(N2CCN3c4ccccc4NC(=O)[C@@H]3C2)nn1 ?
// result 48.7%

// query Which measured inhibition at 0.1 µM belongs to CCNC(=O)C1CN(c2ccc(OCc3c(C)nnn3-c3ccc(C(F)F)cc3)nc2)C1 , tested on α5-GABAA receptor (α5, β3, γ2 subunits) (Homo sapiens (Human), UniProt P18507+P31644)?
// result 49.9%

// query Query inhibition at 0.1 µM on α5-GABAA receptor (α5, β3, γ2 subunits) (Homo sapiens (Human), UniProt P18507+P31644) for Cc1nnn(-c2ccc(C(F)F)cc2)c1COc1ccc(N2CCN3CC(C(C)(C)C)NC(=O)[C@@H]3C2)nn1 (single isomer, unassigned)
// result 53.9%

====

- test target: human α1β3γ2 receptors (Homo sapiens (Human), UniProt P14867+P18507)
- assay comment: 3H-flunitrazepam competition binding, human α1β3γ2 GABAA receptor
- test settings: HEK293 cell membranes, 1 nM 3H-flunitrazepam; read-out: Ki α1
reported metric: Ki
Kindly report the value followed by its unit.

// query Request the reported Ki associated with Cc1nnn(-c2ccc(C(F)F)cc2)c1COc1ccc(N2CCN(C)C2=O)nn1
// result 19.3 nM

// query Field request: Ki | item: Cc1nnn(-c2ccc(C(F)F)cc2)c1COc1ccc(N2CCN(C)C(=O)C2)nn1
// result 47.8 nM

// query So what does the record say about Ki for Cc1nnn(-c2ccc(C(F)F)cc2)c1COc1ccc(N2CCN(CCN3CCOCC3)C(=O)C2)nn1 ?
// result 6.23 nM

// query Bench note: what Ki did Cc1nnn(-c2ccc(C(F)F)cc2)c1COc1ccc(N2C[C@H]3C[C@@H]2C(=O)N3)nn1 show?
// result 65.2 nM

====

- test target: α5-GABAA receptor (α5, β3, γ2 subunits) (Homo sapiens (Human), UniProt P18507+P31644)
- assay comment: Whole cell patch clamp, inverse agonist efficacy in HEK293 cells expressing α5-GABAA receptor
- Assay type: cell-based
- test settings: HEK293, drug 100 nM, GABA 0.05 μM, −60 mV; read-out: Compound inverse agonist efficacy %
- Excerpt: The inventors used electrophysiological methods to determine the inverse agonist efficacy of the drugs to be tested on the α5-GABAA receptor. The detailed methods are as follows: Different subunits of the GABAA receptor were co-expressed in the HEK293 cell line to construct a fully functional GABAA receptor. The α, β, and γ subunits are essential to form a complete functional GABAA receptor. […]
Give measured inhibition at 0.1 µM for each item. Keep answers brief.
Hey, just the number and the unit after it is fine.

// query Please look up its inhibition at 0.1 µM: O=C1CN(c2ccc(OCc3c(CO)nnn3-c3ccc(C(F)F)cc3)nn2)CCN1
// result 54.8%

// query Entry under review: Cc1nnn(-c2ccc(C(F)F)cc2)c1COc1ccc(N2CC(=O)NC(C)C2)nn1 (centres unmarked) . Reported inhibition at 0.1 µM?
// result 42.5%

// query Bench note: what inhibition at 0.1 µM did COC(C)CN1CCN(c2ccc(OCc3c(C)nnn3-c3ccc(C(F)F)cc3)nn2)CC1=O (centres unmarked) show?
// result 47.2%

// query Quick one: inhibition at 0.1 µM for O=C1CN(c2ccc(OCc3cnnn3-c3ccc(C(F)F)cc3)nn2)CCN1 ?
// result 53.2%

// query For the compound shown here, Cc1nnn(-c2ccc(C(F)F)cc2)c1COc1ccc(N2CCN(CCCC#N)C(=O)C2)nn1 , give the reported inhibition at 0.1 µM.
// result 52.5%

// query Requested field: inhibition at 0.1 µM. Item: Cc1nnn(-c2ccc(C(F)F)cc2)c1COc1ccc(N2C[C@H]3C[C@@H]2C(=O)N3)nn1
// result 48.4%

// query For the compound Cc1nnn(-c2ccc(C(F)F)cc2)c1COc1ccc(N2CC[C@H]3CCNC(=O)[C@@H]3C2)nn1 (relative stereo) , what inhibition at 0.1 µM is on record?
// result 48.4%

// query GET /values?readout=inhibition at 0.1 µM&item= Cc1nnn(-c2ccc(C(F)F)cc2)c1COc1ccc(N2CCN(c3ccncc3)C(=O)C2)nn1
// result 51.3%

====

- test target: α5-GABAA receptor (α5, β3, γ2 subunits) (Homo sapiens (Human), UniProt P18507+P31644)
- assay comment: Whole cell patch clamp, inverse agonist efficacy in HEK293 cells expressing α5-GABAA receptor
- Type: cell-based
- test settings: HEK293, drug 100 nM, GABA 0.05 μM, −60 mV; read-out: Compound inverse agonist efficacy %
reported metric: inhibition at 0.1 µM (%)
Kindly provide the numeric value in % only, without the unit symbol.

// query # inhibition at 0.1 µM lookup, item Cc1nnn(-c2ccc(C(F)F)cc2)c1COc1ccc(N2CCN(Cc3ccccn3)C(=O)C2)nn1
// result 47.2

// query Give the measured inhibition at 0.1 µM of CNS(=O)(=O)C1CCN(c2ccc(OCc3c(C)nnn3-c3ccc(C(F)F)cc3)nn2)C1 (centres unmarked) .
// result 41.1

// query Look up inhibition at 0.1 µM for this molecule: Cc1nnn(-c2ccc(C(F)F)cc2)c1COc1ccc(N2CCN(CCN3CCCC3)C(=O)C2)nn1
// result 49

// query Param item = Cc1nnn(-c2ccc(OC(F)F)cc2)c1COc1ccc(N2CCN3CCNC(=O)[C@@H]3C2)nn1 ; retrieve measured inhibition at 0.1 µM.
// result 57

// query Data request, read-out inhibition at 0.1 µM, for Cc1nnn(-c2ccc(C(F)F)cc2)c1COc1ccc(N2CC(=O)N3CCC[C@H]3C2)nn1
// result 45.7

// query Return reported inhibition at 0.1 µM; argument: Cc1nnn(-c2ccc(C(F)F)cc2)c1COc1ccc(N2CCN(CCN3CCC(F)(F)C3)C(=O)C2)nn1
// result 47.5

// query Requested field: inhibition at 0.1 µM. Item: Cc1nnn(-c2ccc(C(F)F)cc2)c1COc1ccc(N2CCCC2=O)nn1
// result 51.2

// query Would you mind telling me what inhibition at 0.1 µM value was observed for Cc1nnn(-c2ccc(C(F)F)cc2)c1COc1ccc(N2CCOC2=O)nn1 ?
// result 44.1
